Tested on: NCI-H1876 tumor spheroid viability
PROCEDURE SUMMARY: Anticancer human tumor NCI-H1876 cell line growth inhibition;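 note: spheroids exposed to compounds for seven days before the viability read; percent of DMSO vehicle control viability so 100% = vehicle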
ASSAY CONDITIONS: second compound 0.003 µM; first compound 3.16 µM; active compounds read low; spheroids with HUVEC and MSC

[
  {
    "COMPOUND": "[2H]c1nc(C)nc([2H])c1-c1cc(NC[C@@H](C)c2cccc3c(C(=O)NC)ccnc23)ncn1 + COc1cc2c(cc1O)CCNC21CSC2c3c(OC(C)=O)c(C)c4c(c3C(COC1=O)N1C(O)C3Cc5cc(C)c(OC)c(O)c5C(C21)N3C)OCO4",
    "viability, T/C [%]": 0.74
  },
  {
    "COMPOUND": "CC1COCCN1c1cc(-c2ccnn2C)c2ccnc(-c3ccn[nH]3)c2n1 (configuration not stated) + CC[C@@]1(O)C(=O)OCc2c1cc1n(c2=O)Cc2cc3c(CN(C)C)c(O)ccc3nc2-1",
    "viability, T/C [%]": 2.8
  },
  {
    "COMPOUND": "CC(C)n1c(=O)n(C)c2cnc3cc(F)c(-c4ccc(OCCCN5CCCCC5)nc4)cc3c21 + COc1cc2c(cc1O)CCNC21CSC2c3c(OC(C)=O)c(C)c4c(c3C(COC1=O)N1C(O)C3Cc5cc(C)c(OC)c(O)c5C(C21)N3C)OCO4",
    "viability, T/C [%]": 0.63
  },
  {
    "COMPOUND": "COc1ccc([C@@H](O)c2cc(-c3ncnc4cc(N5CCOCC5)ccc34)c(F)cc2Cl)nn1 + CC[C@@]1(O)C(=O)OCc2c1cc1n(c2=O)Cc2cc3c(CN(C)C)c(O)ccc3nc2-1",
    "viability, T/C [%]": 27.6
  },
  {
    "COMPOUND": "Cc1cc(C)c(CNC(=O)c2cc(-c3ccc(CN4CCOCC4)cc3)cc3c2cnn3C2CCCC2)c(=O)[nH]1 + COc1cc2c(cc1O)CCNC21CSC2c3c(OC(C)=O)c(C)c4c(c3C(COC1=O)N1C(O)C3Cc5cc(C)c(OC)c(O)c5C(C21)N3C)OCO4",
    "viability, T/C [%]": 0.68
  },
  {
    "COMPOUND": "COc1ccc([C@@H](O)c2cc(-c3ncnc4cc(N5CCOCC5)ccc34)c(F)cc2Cl)nn1 + COc1cc2c(cc1O)CCNC21CSC2c3c(OC(C)=O)c(C)c4c(c3C(COC1=O)N1C(O)C3Cc5cc(C)c(OC)c(O)c5C(C21)N3C)OCO4",
    "viability, T/C [%]": 0.36
  },
  {
    "COMPOUND": "Cc1cc(C)c(CNC(=O)c2cc(-c3ccc(CN4CCOCC4)cc3)cc3c2cnn3C2CCCC2)c(=O)[nH]1 + CC[C@@]1(O)C(=O)OCc2c1cc1n(c2=O)Cc2cc3c(CN(C)C)c(O)ccc3nc2-1",
    "viability, T/C [%]": 27.7
  },
  {
    "COMPOUND": "CC(C)n1c(=O)n(C)c2cnc3cc(F)c(-c4ccc(OCCCN5CCCCC5)nc4)cc3c21 + CC[C@@]1(O)C(=O)OCc2c1cc1n(c2=O)Cc2cc3c(CN(C)C)c(O)ccc3nc2-1",
    "viability, T/C [%]": 44.1
  },
  {
    "COMPOUND": "CC1COCCN1c1cc(-c2ccnn2C)c2ccnc(-c3ccn[nH]3)c2n1 (configuration not stated) + COc1cc2c(cc1O)CCNC21CSC2c3c(OC(C)=O)c(C)c4c(c3C(COC1=O)N1C(O)C3Cc5cc(C)c(OC)c(O)c5C(C21)N3C)OCO4",
    "viability, T/C [%]": 0.88
  },
  {
    "COMPOUND": "COc1cc(C)[nH]c(=O)c1CN1CCc2c(Cl)cc(C(OC)C3COC3)c(Cl)c2C1=O (configuration not stated) + CC[C@@]1(O)C(=O)OCc2c1cc1n(c2=O)Cc2cc3c(CN(C)C)c(O)ccc3nc2-1",
    "viability, T/C [%]": 80.6
  },
  {
    "COMPOUND": "[2H]c1nc(C)nc([2H])c1-c1cc(NC[C@@H](C)c2cccc3c(C(=O)NC)ccnc23)ncn1 + CC[C@@]1(O)C(=O)OCc2c1cc1n(c2=O)Cc2cc3c(CN(C)C)c(O)ccc3nc2-1",
    "viability, T/C [%]": 85.1
  },
  {
    "COMPOUND": "COc1cc(C)[nH]c(=O)c1CN1CCc2c(Cl)cc(C(OC)C3COC3)c(Cl)c2C1=O (configuration not stated) + COc1cc2c(cc1O)CCNC21CSC2c3c(OC(C)=O)c(C)c4c(c3C(COC1=O)N1C(O)C3Cc5cc(C)c(OC)c(O)c5C(C21)N3C)OCO4",
    "viability, T/C [%]": 0.7
  }
]
